Below are pKi values measured for hNPFFR1 (Homo sapiens, UniProt Q9GZQ6).
Give bare numbers, as −log10 of the molar value.

1. Nc1ccc(-c2cccc(Cl)c2Cl)c(N2CCCCC2)n1 [Compound 5i] | 6.36

Return reported pKi values for all items listed beneath this line.
1. CCCCNc1nc(N)ccc1-c1cccc(Cl)c1Cl [Compound 5c]
2. Nc1ccc(-c2cccc(Cl)c2Cl)c(N)n1 [Compound 1j]
3. COc1cc(N)nc(N)c1-c1cccc(Cl)c1Cl [Compound 8a]
4. CCc1cc(-c2cccc(Cl)c2Cl)c(N)nc1N [Compound 9b]
5. Cc1c(Cl)cccc1-c1ccc(N)nc1N [Compound 1q]
6. CCc1nc(N)ccc1-c1cccc(Cl)c1Cl [Compound 6c]

1: 6.38; 2: 7.70; 3: 5.39; 4: 5.96; 5: 6.95; 6: 7.60

Return reported pKi values for all items listed beneath this line.
1. Nc1ccc(-c2cc3ccccc3o2)c(N)n1 [Compound 3c, 3-(benzofuran-2-yl) pyridine-2,6-diamine]
2. CCCCOc1ccccc1-c1ccc(N)nc1N [Compound 2e, 3-(2-butoxyphenyl)pyridine-2,6-diamine]
3. Nc1ccc(CCc2ccccc2)c(N)n1 [Compound 11a, 3-phenethylpyridine-2,6-diamine]
4. Nc1ccc(-c2ccccc2)c(N)n1 [Compound 1a, 3-phenylpyridine-2,6-diamine]
5. COc1ccccc1-c1ccc(N)nc1C1CC1 [Compound 6i]

1: 6.28; 2: 7.98; 3: 6.72; 4: 6.73; 5: 7.51

====

Give melting point for every item shown.

1) CCc1nc(N)ccc1-c1ccccc1OC1CC1.Cl | 60 to 80 °C
2) Cl.Nc1ccc(-c2ccc(O)c3ccccc23)c(N)n1 | 160 to 166 °C
3) Nc1ccc(-c2cccnc2F)c(N)n1 | 184 to 188 °C
4) CSc1ccccc1-c1ccc(N)nc1N.Cl | 73 to 78 °C
5) CCc1nc(N)ccc1-c1ccccc1C1CC1.Cl | 180 to 190 °C

Return reported melting point values for all items listed beneath this line.
1. CC(C)Oc1ccc(C(F)(F)F)cc1-c1ccc(N)nc1N
2. Cl.Nc1ccc(-c2ccc(Cl)c3ccccc23)c(N)n1

1: 100 to 103 °C; 2: 135 to 140 °C

Return reported melting point values for all items listed beneath this line.
1. COc1cc(N)ncc1-c1cccc(Cl)c1Cl.Cl
2. CC(C)Oc1ccc2ccccc2c1-c1ccc(N)nc1N

1. > 250 °C
2. 40 to 43 °C

Return reported melting point values for all items listed beneath this line.
1. COc1ccccc1-c1ccc(N)nc1F
2. COc1ccccc1-c1cnc(N)c(F)c1
3. Nc1ccc(-c2ccc(Cl)cc2F)c(N)n1
4. Cc1ccc(Cl)cc1-c1ccc(N)nc1N
5. CN(C)c1ccc(-c2ccc(N)nc2N)c2ccccc12.Cl

175 to 178 °C
75 to 79 °C
134 to 139 °C
95 to 97 °C
175 to 181 °C

====

# System Tested: human NPFFR1 (hNPFFR1) receptor (Homo sapiens, UniProt Q9GZQ6)
# Construct: expressed in transfected cells; host or cells: HEK-293 T cells, transient co-transfection
# Sequence (Q9GZQ6 whole entry): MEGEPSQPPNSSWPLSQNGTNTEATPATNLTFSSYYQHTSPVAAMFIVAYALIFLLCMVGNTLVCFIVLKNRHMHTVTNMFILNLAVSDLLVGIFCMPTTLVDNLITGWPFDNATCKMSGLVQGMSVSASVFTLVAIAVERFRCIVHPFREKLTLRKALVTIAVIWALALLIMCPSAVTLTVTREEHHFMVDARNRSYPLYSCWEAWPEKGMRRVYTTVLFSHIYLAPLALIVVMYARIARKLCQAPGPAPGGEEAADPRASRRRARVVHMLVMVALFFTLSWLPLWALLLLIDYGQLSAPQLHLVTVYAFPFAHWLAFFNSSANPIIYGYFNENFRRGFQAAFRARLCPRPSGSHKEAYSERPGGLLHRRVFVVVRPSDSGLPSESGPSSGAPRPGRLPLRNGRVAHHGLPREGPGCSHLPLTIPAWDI
# Test: Human NPFFR1 evaluation using BRET biosensors in HEK-293 T cells
# Assay type: cell-based
# Recorded Conditions: hNPFFR1 in HEK-293 T cells, stimulated by EC80 RFRP-3, read-out: IC50 of antagonist activity
Observation Type: IC50

1) Nc1ccc(-c2ccccc2-c2ccccc2)c(N)n1 | 100 to 500 nM
2) CS(=O)(=O)c1ccccc1-c1ccc(N)nc1N.Cl | > 1000 nM
3) CC(C)Oc1ccc(F)cc1-c1ccc(N)nc1N | 500 to 1000 nM
4) COc1cccc(OC(C)C)c1-c1ccc(N)nc1N | > 1000 nM
5) Nc1ccc(-c2ccccc2O)c(N)n1 | 500 to 1000 nM

Return reported IC50 values for all items listed beneath this line.
1. Cc1ccccc1-c1ccc(N)nc1N
2. Nc1ccc(-c2ccccc2OC2CC2)c(N)n1
3. Nc1ccc(-c2ccccc2C2CC2)c(N)n1
4. Nc1ccc(Cc2ccccc2)c(N)n1 [Compound 10a, 3-benzylpyridine-2,6-diamine]
5. Nc1ccc(-c2ccc(F)nc2)c(N)n1
6. Nc1ccc(-c2ccccc2)c(N)n1
7. COc1ccccc1-c1ccc(N)nc1N

100 to 500 nM
100 to 500 nM
< 100 nM
> 1000 nM
> 1000 nM
> 1000 nM
100 to 500 nM

Return reported IC50 values for all items listed beneath this line.
1. COc1ccccc1-c1ccc(N)nc1C1CC1
2. Nc1ccc(-c2ccc(Cl)cc2)c(N)n1
3. Nc1ccc(-c2ccccc2C(F)(F)F)c(N)n1
4. Cc1ncccc1-c1ccc(N)nc1N
5. Nc1ccc(-c2ccccc2Cl)c(N)n1
6. CC(C)Oc1ccccc1-c1ccc(N)nc1N
7. CCCc1nc(N)ccc1-c1ccccc1OC
8. Nc1ccc(Cc2cccc(Cl)c2)c(N)n1 [Compound 10d, 3-(3-chlorobenzyl)pyridine-2,6-diamine]

1: 500 to 1000 nM; 2: > 1000 nM; 3: 500 to 1000 nM; 4: > 1000 nM; 5: 500 to 1000 nM; 6: 100 to 500 nM; 7: 100 to 500 nM; 8: 500 to 1000 nM

====

Structures can show the parent of a compound that is named as a salt.
Observation Type: melting point

Check out these entries, answers already filled in.
1. Nc1ccc(-c2ccc(N3CCCCC3)nc2)c(N)n1 | 155 to 159 °C
2. Cl.Nc1ccc(-c2ccccc2OCc2ccccc2)c(N)n1 | 50 to 60 °C
3. Cc1cc(N)nc(C)c1-c1cccc(Cl)c1Cl | 140 to 145 °C
4. COc1ccccc1-c1ccc(N)nc1OC | 85 to 87 °C
5. CNc1ccc(-c2ccc(N)nc2N)cn1 | 178 to 182 °C
6. Cc1cc(Cl)ccc1-c1ccc(N)nc1N | 80 to 85 °C
7. Cl.Nc1ccc(-c2ccc(F)c3ccccc23)c(N)n1 | 119 to 126 °C
8. Cc1cc(C(F)(F)F)ccc1-c1ccc(N)nc1N | 60 to 65 °C
9. COc1ccccc1-c1ccc(N)nc1C | 132 to 140 °C

Now examine the next entry.
May I ask what melting point has been recorded for NCCOc1nc(N)ccc1-c1cccc(Cl)c1Cl (as salt: hydrochloride) ?
183 to 190 °C

====

Observation Type: melting point

Check out these entries, answers already filled in.
1. Cc1ncccc1-c1ccc(N)nc1N | 192 to 198 °C
2. CC(C)Oc1ccc(F)cc1-c1ccc(N)nc1N | 93 to 97 °C
3. Cc1cccc(-c2ccc(N)nc2N)c1Cl | 109 to 114 °C
4. Cc1cccc(C)c1-c1ccc(N)nc1N | 104 to 108 °C
5. COc1ccccc1-c1cnc(N)cc1OC | 140 to 144 °C
6. Nc1ccc(-c2ccc(F)nc2)c(N)n1 | 170 to 178 °C
7. Cc1cc(N)ncc1-c1cccc(Cl)c1Cl | 94 to 97 °C
8. Cc1n[nH]c(C)c1-c1ccc(N)nc1N | > 250 °C
9. Nc1ccc(-c2cccc3ccccc23)c(N)n1 | 152 to 158 °C

May I ask what melting point has been recorded for `Cc1ccc(OC(C)C)c(-c2ccc(N)nc2N)c1` ?
78 to 81 °C

====

# System Tested: human NPFFR1 (hNPFFR1) receptor (Homo sapiens, UniProt Q9GZQ6)
# Test: Human NPFFR1 evaluation using BRET biosensors in HEK-293 T cells
# Recorded Conditions: hNPFFR1 in HEK-293 T cells, stimulated by EC80 RFRP-3, read-out: IC50 of antagonist activity
pIC50: −log10 of the molar value.
Observation Type: pIC50

Check out these entries, answers already filled in.
1. Nc1ccc(-c2cccc(Cl)c2Cl)c(N)n1 | 6.30 to 7.00
2. Nc1ccc(-c2cccc(C(F)(F)F)c2Cl)c(N)n1 | 6.30 to 7.00
3. Nc1ccc(-c2ccccc2Cc2ccccc2)c(N)n1 | 6.30 to 7.00
4. COc1cc(F)ccc1-c1ccc(N)nc1N | 6.00 to 6.30
5. Cl.N#Cc1ccccc1-c1ccc(N)nc1N | 6.30 to 7.00
6. Cc1cccc(C)c1-c1ccc(N)nc1N | 6.30 to 7.00
7. COc1ccc2ccccc2c1-c1ccc(N)nc1N | 6.30 to 7.00
8. Cc1nc(N)ccc1-c1cccc(Cl)c1Cl | 6.00 to 6.30
9. CCCCOc1ccccc1-c1ccc(N)nc1N | 6.30 to 7.00
10. Nc1ccc(-c2ccc(Cl)c(Cl)c2)c(N)n1 | < 6.00

Return reported pIC50 values for all items listed beneath this line.
1. CSc1ccccc1-c1ccc(N)nc1N.Cl
2. CC(C)Oc1cc(F)ccc1-c1ccc(N)nc1N
3. Nc1ccc(-c2ccc(F)cc2Cl)c(N)n1
4. CC(C)Oc1ccc(C(F)(F)F)cc1-c1ccc(N)nc1N
5. Nc1ccc(-c2ccc(Cl)cc2F)c(N)n1

6.30 to 7.00
6.30 to 7.00
6.00 to 6.30
< 6.00
< 6.00

Return reported pIC50 values for all items listed beneath this line.
1. Cc1cccc(-c2ccc(N)nc2N)c1Cl
2. Cc1ccc(-c2ccc(N)nc2N)c(OC(C)C)c1
3. Cl.Nc1ccc(-c2ccc(O)c3ccccc23)c(N)n1

1. 6.30 to 7.00
2. < 6.00
3. 6.00 to 6.30
